assay-notes: qHTS drug screen for cell cycle checkpoint inhibitors in PARPi-resistant BRCA-mutant ovarian cancer cell lines. (AID 1963452)
condition-description: PEO1/OlaR viability, CellTiter-Glo luminescence, 96 h; measured here: PEO1 parental Z-AUC; stronger effect = lower value
test-readout: Z-AUC

Before answering, review these 6 worked examples.
>  <molecule>
Nc1ccc(-c2ccc3ncc4ccc(=O)n(-c5cccc(C(F)(F)F)c5)c4c3c2)cn1

>  <result>
-2.21

$$$$
>  <molecule>
CC(C)[C@H](O)C(=O)N[C@@H](C)C(=O)N[C@@H]1C(=O)N(C)CCc2ccccc21

>  <result>
-0.342

$$$$
>  <molecule>
Cc1ccc(S(=O)(=O)OCC(=O)Nc2ccc(C(=O)O)c(O)c2)cc1

>  <result>
1.37

$$$$
>  <molecule>
OC(c1cc(C(F)(F)F)nc2c(C(F)(F)F)cccc12)C1CCCCN1 (configuration not stated)

>  <result>
0.285

$$$$
>  <molecule>
CCc1cccc(CC)c1NC(=O)N1Cc2[nH]nc(NC(=O)c3ccc(N4CCN(C)CC4)cc3)c2C1

>  <result>
0.421

$$$$
>  <molecule>
O[C@@H](COc1cccc2ncccc12)CN1CCN(C2c3ccccc3[C@@H]3[C@H](c4ccccc42)C3(F)F)CC1 (some centres not stated)

>  <result>
-1.13

$$$$

Provide reported Z-AUC for each item, in the same order as listed.
1. CN(C)N=Nc1nc[nH]c1C(N)=O
2. Clc1ccc(C2(c3ccc(-c4cn[nH]c4)cc3)CCNCC2)cc1
3. COc1nccc(-c2c(-c3ccc(F)cc3)ncn2C2CCNCC2)n1

1. 0.491
2. 0.18
3. 0.981

Parameters: items (list). Returns: Z-AUC for each item.
1. O=C(Nc1ccc(OC(F)(F)F)cc1)c1sccc1NCc1ccnc2ccccc12
2. COC(=O)N1CCN(Cc2cccc(NC(=O)Nc3ccc(C)nc3)c2F)CC1

1. -0.378
2. -0.204

Can you give me Z-AUC for all of these, one by one?
1. CNC(=O)c1c(-c2ccc(F)cc2)oc2cc(N(CCO)S(C)(=O)=O)c(C3CC3)cc12
2. CC(=O)Nc1cccc(-n2c(=O)n(C3CC3)c(=O)c3c(Nc4ccc(I)cc4F)n(C)c(=O)c(C)c32)c1

[0.436, -1.33]

====

Tested on: WaGa
assay-notes: qHTS assay to identify novel small-molecules to repurpose for Merkel cell carcinoma treatment (AID 1296009); further: nearly all actives have a fitted effect of over 60% in size; further: potency means the concentration at half of the fitted maximal effect
condition-description: MCC and control cell lines, CellTiter-Glo viability, 72 h; series mostly up to 46 µM
Records with an inconclusive call do not appear. Activity calls are given as the source filed them. Calls follow the shape of the dose curve; as a rule, active = well fitted inhibition curve with a large enough effect; inconclusive = small, poorly fitted or top-dose-only effect; inactive = flat fitted curve, though single readings scatter.
test-readout: Potency

Please review the entries below; each comes with its answer.
>  <compound>
CCCC1OC2C[C@@H]3[C@H]4CCC5=CC(=O)C=C[C@]5(C)[C@H]4C(O)C[C@]3(C)[C@]2(C(=O)CO)O1 (stereo partly specified)

>  <system-tested>
WaGa

>  <Potency>
inactive

$$$$
>  <compound>
Cc1ccc(C(=O)N(CCCN)[C@@H](c2oc3cc(Cl)ccc3c(=O)c2Cc2ccccc2)C(C)C)cc1

>  <system-tested>
WaGa

>  <Potency>
inactive

$$$$
>  <compound>
C#C[C@]1(O)CC[C@H]2[C@H]3CCc4cc(OC)ccc4[C@H]3CC[C@@]21C

>  <system-tested>
WaGa

>  <Potency>
inactive

$$$$
>  <compound>
CN[C@@H]1CN(c2ccc3c(=O)c(C(=O)O)cn(-c4nccs4)c3n2)C[C@@H]1OC

>  <system-tested>
WaGa

>  <Potency>
1.15 µM (active)

$$$$
>  <compound>
Cc1ccc(NC(=O)c2cccc(N(C)C)c2)cc1NC(=O)c1ccc(O)cc1

>  <system-tested>
WaGa

>  <Potency>
8.33 µM (active)

$$$$
>  <compound>
Cn1c(=O)c(Oc2ccc(F)cc2F)cc2cnc(NC3CCOCC3)nc21

>  <system-tested>
WaGa

>  <Potency>
inactive

$$$$
>  <compound>
c1ccc(-c2oc3ncnc(NC[C@@H]4CCCO4)c3c2-c2ccccc2)cc1

>  <system-tested>
WaGa

>  <Potency>
inactive

$$$$
>  <compound>
COc1ccc(-c2cc(=O)c3c(O)cc(O[C@@H]4O[C@H](CO[C@@H]5O[C@@H](C)[C@H](O)[C@@H](O)[C@@H]5O)[C@@H](O)[C@H](O)[C@@H]4O)cc3o2)cc1O

>  <system-tested>
WaGa

>  <Potency>
inactive

$$$$
>  <compound>
c1ccc(CNc2nc(N3CCOc4ccccc43)nc3c2CCCC3)cc1

>  <system-tested>
WaGa

>  <Potency>
inactive

$$$$
>  <compound>
NCC1CCC(C(=O)O)CC1 (stereo unspecified)

>  <system-tested>
WaGa

>  <Potency>
inactive

$$$$

State the recorded Potency for every item in the following list.
1. CN(C)c1ccc(-c2nc3ncc(Cl)c(N4CCN(CC(=O)Nc5nccs5)CC4)c3[nH]2)cc1
2. O=[N+]([O-])c1ccc(Nc2ccccc2-c2ccccc2)c2nonc12
3. CN(C)c1ccccc1CN1CCCN(Cc2ccccc2N(C)C)C1c1ccncc1
4. COc1cc2ncnc(Nc3cc(Br)c(O)c(Br)c3)c2cc1OC
5. CNc1nc(-c2ccc3c(N)n[nH]c3c2)cc(N2C[C@@H](C(=O)NC3CCCCC3)CC[C@@H]2C)n1
6. COc1cc(C=CC(=O)O)ccc1O
7. CNC(=O)[C@H](CC1=CN=C2C=CCC=C12)NC(=O)[C@@H](CC(=O)NO)CC(C)C
8. c1cc(OCCN2CCCCC2)cc(-c2n[nH]c3ccc(-c4ncn[nH]4)cc23)c1

1. inactive
2. inactive
3. inactive
4. inactive
5. inactive
6. inactive
7. 0.296 µM (active)
8. 18.7 µM (active)

Dear colleague, could you send me Potency for each of the items below? Thanks.
1. CN1N=C(N)c2cn([C@@H]3O[C@H](COP(=O)(O)O)[C@@H](O)[C@@H]3O)c3ncnc1c23
2. C[C@@]1(C(=O)Nc2ccc(F)nc2)CCCN1c1nc(Nc2cc(C3CC3)[nH]n2)c2cccn2n1
3. COc1ccc(-c2cc3nccn3c(Nc3ncccc3C(N)=O)n2)cc1OC

1: 0.0372 µM (active); 2: 3.32 µM (active); 3: inactive
